The reported measurements were obtained from patent US20230114728A1.

K. pneumoniae UMM producing SHV-5 and KPC-2 MIC data

molecule: O=C(O)c1cccc2c1OB(O)[C@@H](NC(=O)[C@H](NC(=O)N1CCN(CCF)C(=O)C1=O)c1c(F)cc(O)cc1F)C2 (single isomer, unassigned)
MIC: 8 to 16 µg/mL
//
molecule: CCN1CCN(C(=O)N[C@H](C(=O)N[C@H]2Cc3cccc(C(=O)O)c3OB2O)c2nc(Cl)c(C(=O)O)cc2F)C(=O)C1=O
MIC: > 128 µg/mL
//
molecule: CCN1CCN(C(=O)NC(C(=O)N[C@H]2Cc3cccc(C(=O)O)c3OB2O)c2ccc(C(=O)O)c(OC)c2)C(=O)C1=O (some centres unmarked)
MIC: > 128 µg/mL
//
molecule: NCCCN1CCN(C(=O)NC(C(=O)N[C@H]2Cc3ccc(F)c(C(=O)O)c3OB2O)c2c(F)cc(O)cc2F)C(=O)C1=O (some centres unmarked)
MIC: 8 to 16 µg/mL
//
molecule: CCN1CCN(C(=O)NC(C(=O)N[C@H]2Cc3cccc(C(=O)O)c3OB2O)c2ccc(C(=O)O)c(Cl)c2Cl)C(=O)C1=O (some centres unmarked)
MIC: > 128 µg/mL
//
molecule: CCN1C[C@H](C)N(C(=O)N[C@@H](C(=O)N[C@H]2Cc3cccc(C(=O)O)c3OB2O)c2ccc(O)c(F)c2F)C(=O)C1=O
MIC: < 0.25 µg/mL
//
molecule: O=C(NC(C(=O)N[C@H]1Cc2ccc(F)c(C(=O)O)c2OB1O)c1ncc(O)cc1F)c1ccnc(F)c1 (some centres unmarked)
MIC: > 128 µg/mL
//
molecule: O=C(O)c1cccc2c1OB(O)[C@@H](NC(=O)C(NC(=O)N1CCN(CCF)C(=O)C1=O)c1ccc(O)c(F)c1F)C2 (some centres unmarked)
MIC: < 0.25 µg/mL
//
molecule: CCN1CCN(C(=O)NC(C(=O)N[C@H]2Cc3ccc(OCCN)c(C(=O)O)c3OB2O)c2ccccc2)C(=O)C1=O (some centres unmarked)
MIC: > 128 µg/mL
//
molecule: CCN1CCN(C(=O)NC(C(=O)N[C@H]2Cc3ccc(F)c(C(=O)O)c3OB2O)c2ccc(C(=O)O)cc2)C(=O)C1=O (some centres unmarked)
MIC: > 128 µg/mL
//
molecule: CCN1CCN(C(=O)NC(C(=O)N[C@H]2Cc3ccc(O[C@@H]4CN[C@H](C(=O)N(C)C)C4)c(C(=O)O)c3OB2O)c2ccccc2)C(=O)C1=O (some centres unmarked)
MIC: > 128 µg/mL
//
molecule: NCCN1CCN(C(=O)NC(C(=O)N[C@H]2Cc3cccc(C(=O)O)c3OB2O)c2c(F)cc(O)cc2Cl)C(=O)C1=O (some centres unmarked)
MIC: 32 to 64 µg/mL
//
molecule: NCCN1CCN(C(=O)N[C@@H](C(=O)N[C@H]2Cc3cccc(C(=O)O)c3OB2O)c2ccc(O)c(F)c2F)C(=O)C1=O (single isomer, unassigned)
MIC: 8 to 16 µg/mL
//
molecule: NC1(CN2CCN(C(=O)N[C@@H](C(=O)N[C@H]3Cc4cccc(C(=O)O)c4OB3O)c3c(F)cc(O)cc3F)C(=O)C2=O)CC1 (single isomer, unassigned)
MIC: 8 to 16 µg/mL
//
molecule: CCN1CCN(C(=O)N[C@@H](C(=O)N[C@H]2Cc3cccc(C(=O)O)c3OB2O)c2cc(F)c(C(=O)O)cc2Cl)C(=O)C1=O (single isomer, unassigned)
MIC: 32 to 64 µg/mL
//
molecule: CCN1CCN(C(=O)N[C@@H](C(=O)N[C@H]2Cc3cccc(C(=O)O)c3OB2O)c2c(O)cc(O)cc2F)C(=O)C1=O (single isomer, unassigned)
MIC: 8 to 16 µg/mL
//
molecule: NCCN1CCCN(C(=O)N[C@H](C(=O)N[C@H]2Cc3cccc(C(=O)O)c3OB2O)c2c(F)cc(O)cc2F)C1=O (single isomer, unassigned)
MIC: 32 to 64 µg/mL
//
molecule: CCN1CCN(C(=O)N[C@@H](C(=O)N[C@H]2Cc3cccc(C(=O)O)c3OB2O)c2ccc(C(=O)O)c(F)c2)C(=O)C1=O (single isomer, unassigned)
MIC: 32 to 64 µg/mL
//
molecule: NCCCN1CCN(C(=O)N[C@@H](C(=O)N[C@H]2Cc3cccc(C(=O)O)c3OB2O)c2ccc(O)c(F)c2F)C(=O)C1=O (single isomer, unassigned)
MIC: < 0.25 µg/mL
//
molecule: NCCN1CCN(C(=O)N[C@H](C(=O)N[C@H]2Cc3cccc(C(=O)O)c3OB2O)c2ccc(O)c(F)c2F)C(=O)C1=O (single isomer, unassigned)
MIC: > 128 µg/mL
//
molecule: O=C(O)c1cccc2c1OB(O)[C@@H](NC(=O)C(NC(=O)N1CCN(CC3CNC3)C(=O)C1=O)c1c(F)cc(O)cc1F)C2 (some centres unmarked)
MIC: 8 to 16 µg/mL
//
molecule: NCCN1CCCN(C(=O)N[C@@H](C(=O)N[C@H]2Cc3cccc(C(=O)O)c3OB2O)c2c(F)cc(O)cc2F)C1=O (single isomer, unassigned)
MIC: 2 to 4 µg/mL
//
molecule: NCCN1CCN(C(=O)N[C@H](C(=O)N[C@H]2Cc3cccc(C(=O)O)c3OB2O)c2ccc(O)c(Cl)c2F)C(=O)C1=O (single isomer, unassigned)
MIC: > 128 µg/mL
